Measured values drawn from patent US20220073584A1 for this set.

Molecular target: T1, mouse RXFP1 receptor (mouse, UniProt Q6R6I7 1-758)
T1 sequence (looked up): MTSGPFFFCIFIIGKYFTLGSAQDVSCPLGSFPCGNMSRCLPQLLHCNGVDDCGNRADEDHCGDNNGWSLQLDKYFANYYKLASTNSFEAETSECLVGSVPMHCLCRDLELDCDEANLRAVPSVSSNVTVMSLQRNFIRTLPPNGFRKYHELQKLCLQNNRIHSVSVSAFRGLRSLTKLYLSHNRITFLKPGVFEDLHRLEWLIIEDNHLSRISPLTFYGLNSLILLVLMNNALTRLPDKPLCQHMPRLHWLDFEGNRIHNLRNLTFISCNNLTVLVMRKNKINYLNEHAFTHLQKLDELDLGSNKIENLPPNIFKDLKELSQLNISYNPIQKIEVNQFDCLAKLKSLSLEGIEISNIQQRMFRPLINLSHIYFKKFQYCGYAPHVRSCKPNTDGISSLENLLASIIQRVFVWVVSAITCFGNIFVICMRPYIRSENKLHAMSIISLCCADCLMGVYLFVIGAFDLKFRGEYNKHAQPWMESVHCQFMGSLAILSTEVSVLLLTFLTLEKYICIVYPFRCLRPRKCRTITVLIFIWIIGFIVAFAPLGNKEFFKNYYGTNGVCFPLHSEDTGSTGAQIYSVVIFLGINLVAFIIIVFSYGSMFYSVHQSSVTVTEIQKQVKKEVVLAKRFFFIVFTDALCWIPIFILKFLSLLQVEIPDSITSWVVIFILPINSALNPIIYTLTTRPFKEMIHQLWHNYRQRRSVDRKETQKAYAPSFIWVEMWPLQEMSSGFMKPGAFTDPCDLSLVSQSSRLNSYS
Experiment: cell-based or functional assay
Ends that are not written are not given here.
assay_endpoint: mRXFP1 EC50 (M), cAMP HTRF assay in CHO-K1 mRXFP1 Gs cells
Respond with the bare value in M.

Answered examples (3):
binder	assay_result
hRLX2(BA)-Fc-TMΔTHTΔK_15-24AA (Fc fusion) SWMEEVIKLCGRELVRAQIAICGMSTWSGGGGSGGGGSGGGGSQLYSALANKCCHVGCTKRSLARFCAAAGGGGSGGGGSGGGGSGGGGSACPPCPAPEFEGGPSVFLFPPKPKDTLMISRTPEVTCVVVDVSHEDPEVKFNWYVDGVEVHNAKTKPREEQYNSTYRVVSVLTVLHQDWLNGKEYKCKVSNKALPASIEKTISKAKGQPREPQVYTLPPSREEMTKNQVSLTCLVKGFYPSDIAVEWESNGQPENNYKTTPPVLDSDGSFFLYSKLTVDKSRWQQGNVFSCSVMHEALHNHYTQKSLCLSPG	8.78e-10
hRLX2-Fc-TMΔTHTΔK_15-24AA (Fc fusion) QLYSALANKCCHVGCTKRSLARFCGGGGSGGGGSGGGGSSWMEEVIKLCGRELVRAQIAICGMSTWSAAAGGGGSGGGGSGGGGSGGGGSACPPCPAPEFEGGPSVFLFPPKPKDTLMISRTPEVTCVVVDVSHEDPEVKFNWYVDGVEVHNAKTKPREEQYNSTYRVVSVLTVLHQDWLNGKEYKCKVSNKALPASIEKTISKAKGQPREPQVYTLPPSREEMTKNQVSLTCLVKGFYPSDIAVEWESNGQPENNYKTTPPVLDSDGSFFLYSKLTVDKSRWQQGNVFSCSVMHEALHNHYTQKSLSLSPG	2.23e-09
recombinant human Relaxin-2 (R&D Systems, catalogue number 6586-RN-025) (ligand, not fully specified (bridges); ends and bridges not checked; also: two interchain and one intrachain disulfide bonds, positions not given here) chain 1: QLYSALANKCCHVGCTKRSLARFC chain 2: DSWMEEVIKLCGRELVRAQIAICGMSTWS	6.68e-11

Fc-TMΔTHTΔK_hRLX2(BA)_21-15AA (Fc fusion) GGGSACPPCPAPEFEGGPSVFLFPPKPKDTLMISRTPEVTCVVVDVSHEDPEVKFNWYVDGVEVHNAKTKPREEQYNSTYRVVSVLTVLHQDWLNGKEYKCKVSNKALPASIEKTISKAKGQPREPQVYTLPPSREEMTKNQVSLTCLVKGFYPSDIAVEWESNGQPENNYKTTPPVLDSDGSFFLYSKLTVDKSRWQQGNVFSCSVMHEALHNHYTQKSLSLSPGGGGGSGGGGSGGGGSGGGGGSSWMEEVIKLCGRELVRAQIAICGMSTWSGGGGSGGGGSGGGGSQLYSALANKCCHVGCTKRSLARFC yielded mRXFP1 EC50 (M), cAMP HTRF assay in CHO-K1 mRXFP1 Gs cells of 8.82e-09

The binder listed as Fc-TMΔTHTΔK_hRLX2_21-15AA (Fc fusion) GGGSACPPCPAPEFEGGPSVFLFPPKPKDTLMISRTPEVTCVVVDVSHEDPEVKFNWYVDGVEVHNAKTKPREEQYNSTYRVVSVLTVLHQDWLNGKEYKCKVSNKALPASIEKTISKAKGQPREPQVYTLPPSREEMTKNQVSLTCLVKGFYPSDIAVEWESNGQPENNYKTTPPVLDSDGSFFLYSKLTVDKSRWQQGNVFSCSVMHEALHNHYTQKSLSLSPGGGGGSGGGGSGGGGSGGGGGSQLYSALANKCCHVGCTKRSLARFCGGGGSGGGGSGGGGSSWMEEVIKLCGRELVRAQIAICGMSTWS shows mRXFP1 EC50 (M), cAMP HTRF assay in CHO-K1 mRXFP1 Gs cells equal to 2.52e-09
